Test system: Human immunodeficiency virus 1
Experiment: Antiviral activity against HIV1 V106A mutant
Format: functional, organism-based
MEASUREMENT KIND: EC50 (nM)
State just the number; it will be interpreted in nM.

Field: example entries. Status: answers known.
Input: Look up EC50 with Human immunodeficiency virus 1 for this compound: C=CCOC(=O)C12CC1(CCCC)c1cc(Cl)ccc1NC2=O (stereo not given)
Output: 1220

Input: Item: CCCCCCC12CC1(C(=O)OCC)C(=O)Nc1ccc(Cl)cc12 (stereo not given) Test system: Human immunodeficiency virus 1 Read-out: EC50 Value: ?
Output: 878

Input: Param readout = EC50; param system = Human immunodeficiency virus 1; param query = CCCC12CC1(C(=O)OCC)C(=O)Nc1ccc(Cl)cc12 (stereo not given) ; response: value
Output: 1010

Input: Query the reported EC50 for Human immunodeficiency virus 1; item: CCCCC12CC1(COCC)C(=O)Nc1ccc(Cl)cc12 (stereo not given)
Output: 1120

New cases:
Input: Form: Entry = CCCCC12CC1(COC)C(=O)Nc1ccc(Cl)cc12 (stereo not given) | System = Human immunodeficiency virus 1 | EC50 = ____
Output: 726

Entry source: ChEMBL document CHEMBL1146842
